# testDetails: Cytotoxicity counterscreen for inhibitors of SARS-CoV-2 cell entry (AID 1645845); note: nearly all actives have a fitted effect of over 50% in size
# testParameters: cell viability (SARS-CoV-2 entry assay cells); series mostly up to 57.1 µM
Records with an inconclusive call do not appear. The source made the active and inactive calls. Calls come from the whole dose curve.
Response enum: active, inactive

*Q* // outcome(item) with item = CC1CC2C3CCC4=CC(=O)C=CC4(C)C3(F)C(O)CC2(C)C1(O)C(=O)COC(=O)c1cccc(S(=O)(=O)O)c1 (stereo unspecified)
*A* inactive

*Q* What do you have for CC(C)n1c(/C=C/[C@H](O)C[C@H](O)CC(=O)O)c(-c2ccc(F)cc2)c2ccccc21 ?
*A* inactive

*Q* // same read-out, input: CNS(=O)(=O)CC1CCC(N(C)c2ncnc3[nH]ccc23)CC1 (stereo unspecified)
*A* inactive

*Q* Same question, CC1=CC(=C(c2ccc(N)cc2)c2ccc(N)cc2)C=CC1=N this time
*A* active

*Q* Would you kindly repeat that for CCC(c1ccccc1)c1noc(CCN(CC)CC)n1 (stereo unspecified) ?
*A* inactive

*Q* Again, but for C/C=C/C/C=C/CCC(=O)[C@H]1O[C@H]1C(N)=O
*A* inactive

====

# Tested on: N140
# testDetails: qHTS profiling for inhibitors of Plasmodium falciparum proliferation (AID 504749); note: nearly all actives have a fitted effect of over 60% in size
# testParameters: P. falciparum in erythrocytes, SYBR Green DNA, 72 h; series mostly up to 28.7 µM
Results filed as inconclusive are left out. Activity calls are given as the source filed them. Calls come from the whole dose curve; as a rule, active = well fitted inhibition curve with a large enough effect; inconclusive = small, poorly fitted or top-dose-only effect; inactive = flat fitted curve, though single readings scatter.
I would appreciate it if you answered using one of these outcomes: active, inactive

*Q* # fetch the recorded call for COc1cc(N)c(Cl)cc1C(=O)N[C@@H]1CN2CCC1CC2 here
*A* inactive

*Q* Next up: CC(C)c1c(CN(C)[C@@H](C)Cc2ccccc2)n(C)n(-c2ccccc2)c1=O
*A* inactive

*Q* What about this molecule? CO[C@@H](COC(N)=O)C1=C(N2CC2)C(=O)C(C)=C(N2CC2)C1=O
*A* active

*Q* Could you do the same for CCNC[C@H](O)c1cccc(O)c1 , please?
*A* inactive

*Q* What do you get for C[C@H]1CN(C2CCC(C#N)(c3ccc(F)cc3)CC2)CC[C@@]1(C(=O)O)c1ccccc1 (stereo not given in full) ?
*A* inactive

*Q* Check CC[C@@]1(c2ccc(N)cc2)CCC(=O)NC1=O too.
*A* inactive

*Q* Now this one: CC[C@]1(c2cccc(O)c2)CCCCN(C)C1
*A* active

*Q* Input CN[C@@H](C)[C@H]1CC[C@@H](N)[C@@H](O[C@@H]2[C@@H](O)[C@@H](O[C@H]3OC[C@@](C)(O)[C@@H](NC)[C@@H]3O)[C@H](N)C[C@@H]2N)O1 (tested in a mixture with another compound)
*A* inactive

*Q* For CC[C@@H]1[C@@H]2C[C@H]3[C@H]4N(C)c5ccccc5[C@@]45C[C@@H]([C@@H]2[C@@H]5O)N3[C@H]1O then?
*A* inactive

*Q* Moving on to the next molecule: CC(=O)O[C@H]1CC[C@@]2(C)C(=CC[C@@H]3[C@H]2CC[C@]2(C)C(=O)CC[C@H]32)C1
*A* inactive

*Q* Moving on to CC(C)(O)C1C2OC(=O)C1[C@]1(O)C[C@H]3O[C@]34C(=O)O[C@H]2[C@]14C (stereo not given in full) (tested in a mixture with another compound)
*A* inactive

*Q* Also check C#CCN(C)[C@@H](C)Cc1ccccc1
*A* inactive

*Q* Also CC(=O)OCC(=O)[C@@H]1CC[C@H]2[C@H]3CC[C@H]4C[C@@H](O)CC[C@]4(C)[C@@H]3C(=O)C[C@@]12C ?
*A* inactive

*Q* Subsequent entry: O=[As]O[As]=O (stereo not given)
*A* active

*Q* And the next one, C[C@]12CC[C@H]3[C@@H](CCC4=CC(=O)CC[C@@]43C)[C@@H]1CC[C@@H]2O ?
*A* inactive

*Q* Next entry: COc1cc2c(cc1OC)[C@@]13CCN4CC5=CCOC6CC(=O)N2C1[C@H]6[C@@H]5C[C@@H]43 (stereo not given in full)
*A* inactive

*Q* Check CNC(C)[C@@H](O)c1ccccc1 (stereo not given in full) too.
*A* inactive

*Q* And C[C@]12CC[C@H](O)CC1=CCC1C2CC[C@]2(C)C(=O)CC[C@@H]12 (stereo not given in full) ?
*A* inactive

*Q* Cool, now CNC(C)[C@@H](O)c1ccc(O)cc1 (stereo not given in full)
*A* inactive

*Q* Same question, C[C@H](N)[C@@H](O)c1ccccc1 this time
*A* inactive

*Q* Same read-out for CNC[C@H](O)c1ccc(O)cc1 ?
*A* inactive

*Q* What do you get for C[C@H](NC(C)(C)C)C(=O)c1cccc(Cl)c1 ?
*A* inactive

*Q* Let us now turn to CNc1ccc(C(=O)CC(O)CCC(C)C2OC(=O)CC(O)CC(=O)CC(O)CC(O)CC(O)CC(O)CC3(O)CC(O)C(C(=O)OC)C(CC(O[C@@H]4OC(C)C(O)C(N)C4O)/C=C/C=C/C=C/C=C/C=C/C=C/C=C/C2C)O3)cc1 (stereo not given in full)
*A* inactive

*Q* Similarly, C[C@@]12CCC(=O)C=C1C=C[C@H]1[C@H]3CC[C@](O)(CCC(=O)O)[C@]3(C)CC[C@@H]12 ?
*A* inactive

*Q* Queued: C[C@@H]1O[C@H](O[C@@H]2C=C3CC[C@H]4[C@@H](CC[C@]5(C)[C@@H](c6ccc(=O)oc6)CC[C@]45O)[C@@]3(C)CC2)[C@@H](O)[C@H](O)[C@@H]1O
*A* inactive

*Q* Please answer likewise for C[N+]1([O-])[C@@H]2CC(OC(=O)[C@@H](CO)c3ccccc3)C[C@@H]1[C@H]1O[C@H]12 (stereo not given in full)
*A* inactive

*Q* For C[C@@]12CC[C@H]3[C@@H](CC[C@@H]4C[C@H]5S[C@H]5C[C@]43C)[C@H]1CC[C@H]2O then?
*A* inactive

*Q* Let us now turn to O=C1C=C2C=CC3C[C@@]2(O1)C1CCCCN31 (stereo not given in full)
*A* active

*Q* Please answer likewise for O=c1ccc2cc(O[C@H]3O[C@@H](CO)[C@@H](O)[C@@H](O)[C@@H]3O)c(O)cc2o1
*A* inactive

*Q* Next: C[C@]12CC[C@H](OS(=O)(=O)O)CC1=CCC1C2CC[C@]2(C)C(=O)CC[C@@H]12 (stereo not given in full)
*A* inactive

*Q* Please do the same for CN(C)[C@@H]1C(=O)C(C(N)=O)=C(O)[C@]2(O)C(=O)C3=C(O)c4c(O)ccc(Cl)c4[C@](C)(O)[C@H]3C[C@@H]12 as well.
*A* inactive

*Q* Follow-up entry: C[N+]1(C)[C@@H]2CC[C@H]1CC(OC(=O)[C@@H](CO)c1ccccc1)C2 (stereo not given in full)
*A* inactive

*Q* Cool, now CC(C)N(CC[C@@](C(N)=O)(c1ccccc1)c1ccccn1)C(C)C
*A* inactive

*Q* Moving on to Clc1ccc([C@@H](OCCN2CCCCC2)c2ccccc2)cc1
*A* active

*Q* Thanks! And CN(C)C(=O)Oc1cc(OC(=O)N(C)C)cc([C@@H](O)CNC(C)(C)C)c1 ?
*A* inactive

====

# testDetails: Primary qHTS to identify inhibitors of SARS-CoV-2 cell entry (AID 1645846); note: nearly all actives have a fitted effect of over 45% in size
# testParameters: SARS-CoV-2 pseudovirus cell entry assay, luminescence; at 57.1 µM (top of the series) unless noted
Inconclusive results are not listed.
I'd be grateful if you could share measured activity change, negative = inhibition for these entries.

*Q* Fill in: activity change, negative = inhibition of CCOCOC[C@H](C[C@H](C)C(=O)NO)NC(=O)c1ccc(Oc2ccccc2)cc1 is ___
*A* -23.9%

*Q* Here is the next compound: Cc1c(O)c(=O)ccn1C
*A* -14.9% [at 114 µM]

*Q* Request: CC[C@H](CC[C@@H](C)[C@H]1CC[C@H]2[C@@H]3CC=C4C[C@@H](O)CC[C@]4(C)[C@H]3CC[C@]12C)C(C)C
*A* -9.4%

*Q* Queued: O=C(Nc1ccnc(NC(=O)C2CC2)c1)c1c(Cl)cccc1Cl
*A* -97%

*Q* Another compound: N#Cc1ccnc(N2C(=O)CC[C@H]2C(=O)N(c2cncc(F)c2)C(C(=O)NC2CC(F)(F)C2)c2ccccc2Cl)c1 (stereo partly drawn)
*A* -25.5%

*Q* Then what about the compound CCCCCCCCCCCCCC(=O)OCC(COP(=O)([O-])OCC[N+](C)(C)C)OC(=O)CCCCCCCCCCCCC (stereo not drawn) ?
*A* -12.7%

*Q* Likewise for C#C[C@]1(O)CC[C@H]2[C@@H]3CCC4=C/C(=N/O)CC[C@@H]4[C@H]3CC[C@@]21CC ?
*A* -1.12%

*Q* Moving on to CCCCC(=O)O
*A* -20.8%

*Q* Next up: C=CC(=O)N1CCC(CNc2ncnc(N)c2-c2ccc(Oc3ccccc3)cc2)CC1
*A* -20.9%

*Q* Consider next the compound CCC(=O)O[C@]1(C(=O)COC(C)=O)CC[C@H]2[C@@H]3CCC4=CC(=O)CC[C@]4(C)[C@H]3[C@@H](O)C[C@@]21C in the same way.
*A* -0.634%

*Q* Try CCCC[C@@H](C=O)NC(=O)[C@H](CC(C)C)NC(=O)OCc1ccccc1 next.
*A* -89.9%

*Q* # repeat for N[C@@H](C(=O)N[C@@H]1C(=O)N2C(C(=O)O)=C(Cl)CC[C@H]12)c1ccccc1
*A* -20.1%

*Q* Likewise for O=C(NCc1ccc(S(=O)(=O)c2cccc(C(F)(F)F)c2)cc1)c1cnc2[nH]ncc2c1 ?
*A* -97.3%

*Q* Repeat with NS(=O)(=O)OC[C@@H]1C[C@@H](n2ccc3c(N[C@H]4CCc5ccccc54)ncnc32)C[C@@H]1O
*A* -87.9%

*Q* # iterate: C[C@H]1O[C@H](O[C@H]2[C@H](O)[C@@H](O)[C@@H](O[C@H]3[C@H](O)[C@@H](O)C(O)O[C@@H]3CO)O[C@@H]2CO)[C@H](O)[C@@H](O)[C@@H]1N[C@H]1C=C(CO)[C@@H](O)[C@H](O)[C@H]1O (stereo partly drawn)
*A* -16.5%

*Q* Please answer likewise for Oc1cc(O)cc(O)c1
*A* -21.2%

*Q* Check O=C1Nc2nc(-c3c(O)cccc3OCC3CC3)cc([C@@H]3CCCNC3)c2CO1 too.
*A* -96.7%

*Q* Please answer likewise for C[C@@H](O)[C@H]1C(=O)N2C(C(=O)[O-])=C(SC3Cn4cnc[n+]4C3)[C@H](C)[C@H]12 (stereo partly drawn)
*A* -12.2% [at 11.3 µM]
